ASSAY NAME: Single-dose pharmacokinetics, IV and oral
DETAILS: male, CD-1, mouse, serum, iv, 2 mg/kg
METRIC NAME: MRT last (min)
Kindly provide the numeric value in min only, without the unit symbol.

get_value(item= "Nc1ccc(N2CCOCC2)c2nonc12" , readout=MRT last) returns 18

====

ASSAY NAME: Single-dose pharmacokinetics, IV and oral
DETAILS: male, CD-1, mouse, serum, iv, 2 mg/kg
METRIC NAME: AUC(0-inf) (ng·h/mL)
Kindly provide the numeric value in ng·h/mL only, without the unit symbol.

get_value(item= "Nc1ccc(N2CCOCC2)c2nonc12" , readout=AUC(0-inf)) returns 61.2
